Test: Pharmacokinetic study
Type: in vivo
Conditions: mouse, iv; male ICR mice, 1.8 mg/kg single i.v. tail vein, plasma, UPLC-ESI-QqQ-MS, n = 5; read-out: half-life (t1/2) (converted)
Field: half-life. Provide a value for each of the compounds that follow.
The response must be a number in h with no trailing unit.

Query: Returns the measured half-life for the input compound. Input: CC(=O)N[C@H](C(=O)N[C@@H](CO)C(=O)N[C@@H](Cc1ccccc1)C(=O)N[C@]1(C)CCCCCCC=CCCC[C@@](C)(C(N)=O)NC(=O)[C@H](CC(C)C)NC(=O)[C@H](CC(C)C)NC(=O)[C@H](C)NC(=O)[C@H](Cc2c[nH]c3ccccc23)NC(=O)[C@H](Cc2ccc(O)cc2)NC(=O)[C@H](CCC(=O)O)NC1=O)[C@@H](C)O
Reply: 7.9

Query: Returns the measured half-life for the input compound. Input: CC(=O)N[C@H](C(=O)N[C@@H](CO)C(=O)N[C@@H](Cc1ccccc1)C(=O)N[C@@H](C)C(=O)N[C@@H](CCC(=O)O)C(=O)N[C@@H](Cc1ccc(O)cc1)C(=O)N[C@@H](Cc1c[nH]c2ccccc12)C(=O)N[C@@H](C)C(=O)N[C@@H](CC(C)C)C(=O)N[C@@H](CC(C)C)C(=O)N[C@@H](CO)C(=O)NCCOCC(=O)N[C@@H](CC(C)C)C(=O)N[C@@H](C)C(=O)N1C[C@H](O)C[C@H]1C(=O)N[C@@H](Cc1ccc(O)cc1)C(=O)N[C@@H](CCC(C)C)C(=O)N1CCC[C@H]1C(N)=O)[C@@H](C)O
Reply: 1.3

----------
Field: α-helicity (%). Provide a value for each of the compounds that follow.
Assay: α-Helicity by CD spectroscopy
Assay type: physicochemical
Conditions: PB pH 7.2, 10-50 µM peptide, 20°C, calculated from [θ]222
The response must be a number in % with no trailing unit.

Query: Returns the measured α-helicity (%) for the input compound. Input: CC(=O)N[C@H](C(=O)N[C@@H](CO)C(=O)N[C@@H](Cc1ccccc1)C(=O)N[C@]1(C)CCCCCCC=CCCC[C@@](C)(C(N)=O)NC(=O)[C@H](CC(C)C)NC(=O)[C@H](CC(C)C)NC(=O)[C@H](C)NC(=O)[C@H](Cc2c[nH]c3ccccc23)NC(=O)[C@H](Cc2ccc(O)cc2)NC(=O)[C@H](CCC(=O)O)NC1=O)[C@@H](C)O [SPMI2]
Reply: 5

Query: Returns the measured α-helicity (%) for the input compound. Input: CC(=O)N[C@H](C(=O)N[C@@H](CO)C(=O)N[C@@H](Cc1ccccc1)C(=O)N[C@@H](C)C(=O)N[C@@H](CCC(=O)O)C(=O)N[C@@H](Cc1ccc(O)cc1)C(=O)N[C@@H](Cc1c[nH]c2ccccc12)C(=O)N[C@@H](C)C(=O)N[C@@H](CC(C)C)C(=O)N[C@@H](CC(C)C)C(=O)N[C@@H](CO)C(=O)NCCOCC(=O)N[C@@H](CC(C)C)C(=O)N[C@@H](C)C(=O)N1C[C@H](O)C[C@H]1C(=O)N[C@@H](Cc1ccc(O)cc1)C(=O)N[C@@H](CCC(C)C)C(=O)N1CCC[C@H]1C(N)=O)[C@@H](C)O [PMI-HIF1-1]
Reply: 17

----------
Experiment: Pharmacokinetic study
Assay type: in vivo
Settings: mouse, iv; male ICR mice, 1.8 mg/kg single i.v. tail vein, plasma, UPLC-ESI-QqQ-MS, mean, n = 5
Field: Cmax. Provide a value for each of the molecules that follow.
The response must be a number in ng/mL with no trailing unit.

Query: Returns the measured Cmax for the input molecule. Input: CC(=O)N[C@H](C(=O)N[C@@H](CO)C(=O)N[C@@H](Cc1ccccc1)C(=O)N[C@]1(C)CCCCCCC=CCCC[C@@](C)(C(N)=O)NC(=O)[C@H](CC(C)C)NC(=O)[C@H](CC(C)C)NC(=O)[C@H](C)NC(=O)[C@H](Cc2c[nH]c3ccccc23)NC(=O)[C@H](Cc2ccc(O)cc2)NC(=O)[C@H](CCC(=O)O)NC1=O)[C@@H](C)O
Reply: 30000

Query: Returns the measured Cmax for the input molecule. Input: CC(=O)N[C@H](C(=O)N[C@@H](CO)C(=O)N[C@@H](Cc1ccccc1)C(=O)N[C@@H](C)C(=O)N[C@@H](CCC(=O)O)C(=O)N[C@@H](Cc1ccc(O)cc1)C(=O)N[C@@H](Cc1c[nH]c2ccccc12)C(=O)N[C@@H](C)C(=O)N[C@@H](CC(C)C)C(=O)N[C@@H](CC(C)C)C(=O)N[C@@H](CO)C(=O)NCCOCC(=O)N[C@@H](CC(C)C)C(=O)N[C@@H](C)C(=O)N1C[C@H](O)C[C@H]1C(=O)N[C@@H](Cc1ccc(O)cc1)C(=O)N[C@@H](CCC(C)C)C(=O)N1CCC[C@H]1C(N)=O)[C@@H](C)O
Reply: 14700
